# Test system: PKAC-alpha;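 further: KINOMEscan kinase panel screen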
# Construct: gene PRKACA
# Run Parameters: concentration: 1 μM, replicates: in singlicate; n = 1
Quick list: %Inh per entry.
// return numeric value only (unit: %, not printed)

{"Compound": "O=C(O)C(F)(F)F.O=c1[nH]ccc2nc(N[C@@H]3CCNC3)nc(Nc3ccc4c(c3)S(=O)(=O)CC4)c12", "Recorded Metric": "%Inh", "Readout Number": 24}

Request the reported %Inh associated with CN(C)CCOc1ccc(-c2cc(-c3ccc(Cl)c(O)c3)c(-c3ccncc3)[nH]2)cc1.Cl.Cl
33

Query (compound): CC(C)(C)c1ccc(C(=O)Nc2cn3cc(-n4ccnc4)ccc3n2)cc1 ; field requested: %Inh
37

Quick check: %Inh of Nc1cccc(-c2ccc3c(N)n[nH]c3c2)c1 ?
0

Param item = COc1cccc(CC(=O)N2CCc3cc(-c4cn(C)c5ncnc(N)c45)ccc32)c1 ; retrieve measured %Inh.
4
